- TARGET: Left-right determination factor 2 (Homo sapiens)
- PROCEDURE TEXT: LEFTY2 binders on small-molecule microarrays, primary screen, biochemical, small-molecule microarray, 635 nm fluorescence scan (AID 1110)
- RUN CONDITIONS: LEFTY2 binding, higher = more signal
composite z-score values by entry

COMPOUND | composite z-score
CC(C)N1C(=O)[C@@]2(Cc3ccccc31)c1ccccc1C(=O)N(Cc1ccccc1Cl)[C@H]2c1ccc(CO)cc1 | -0.893
CCOC(=O)C[C@H]1[C@H](OC(=O)c2ccc(C(=O)c3ccccc3)cc2)[C@@H](NC(=O)c2ccc3ccccc3n2)c2cc(OCCCO)ccc2N1C(=O)c1ccccc1 | -0.538
CCCC[C@H]1OB(O)C[C@H]2C1=C(COC)C[C@H]1C(=O)N(C)C(=O)[C@H]12 | 0.358
CC(C)C(=C=CC[C@@H](O)c1ccc(OCCO)cc1)C[C@@H](O)c1ccccn1 | 1.21
NCCCCCNC(=O)[C@@H]1C[C@@H]2C(=O)N[C@@H](Cc3ccccc3)C(=O)N2[C@@H]1c1ccc(O)cc1 | 0.406
[N-]=[N+]=NCc1ccccc1C[C@]1(C(=O)N2CCCCC2)N=C(c2ccc(OCCCO)cc2)O[C@H]1c1ccccc1N=[N+]=[N-] | 0.0928
CCCC=C(CCC)[C@@H](NC(=O)c1cccs1)c1ccc(C(F)(F)F)cc1 | 1.16
CCOC(=O)C[C@H]1[C@H](OC(=O)c2ccc(C(=O)c3ccccc3)cc2)[C@@H](NC(=O)c2ccccc2)c2cc(OCCCO)ccc2N1C(=O)c1ccc2ccccc2n1 | 0.495
CC1(C)C2C=C(C(O)C3C=CC4C(=O)NC(=O)C4N3Nc3ccc(Cl)cc3Cl)C[C@@H]1C2 (some centres undefined) | -0.0061
O=C(NCCN1CCOCC1)[C@@H]1c2ccccc2C(=O)N(C2CCCCC2)[C@H]1c1ccc(CO)cc1 | -0.0308
C[N+](C)(C)CCCCCCNC(=O)[C@@H]1C[C@@H]2C(=O)N[C@@H](Cc3ccccc3)C(=O)N2[C@@H]1c1cccc(OCCO)c1 | 0.542
Cc1ccc(S[C@]2(C(=O)NCCCN(C)C)CC(=O)N(Cc3cc(C(F)(F)F)cc(C(F)(F)F)c3)[C@@H]2c2ccc(CO)cc2I)cc1 | -0.664
COCCOC(=O)N1C(=O)[C@@]2(c3cc(C#CCC(C(=O)OC)C(=O)OC)ccc31)[C@H](c1ccccc1OCCO)N1[C@H](c3ccccc3)[C@H](c3ccccc3)OC(=O)[C@H]1[C@@H]2C(=O)NC[C@H](O)c1ccccc1 | 1.44
C=CCOC(=O)[C@H]1[C@@H]2C(=O)O[C@@H](c3ccccc3)[C@@H](c3ccccc3)N2[C@@H](c2ccc(OCCOC(=O)[C@H]3C[C@H]4C(=O)N[C@@H](CCCCNC(C)=O)C(=O)N4[C@H]3c3cccc(OCCO)c3)cc2)[C@]12C(=O)Nc1ccccc12 | 0.578

====

- TARGET: Epidermal growth factor receptor (Homo sapiens)
- PROCEDURE TEXT: EGFR binders on small-molecule microarrays, primary screen, biochemical, small-molecule microarray, 635 nm fluorescence (AID 1104);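 also: score merges 667 nm emission intensity with spot signal to noise over triplicate slides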
- RUN CONDITIONS: EGFR binding, higher = more signal

MOLECULE | composite z-score
C[C@H]1NC(=O)[C@@]23C(=O)N[C@@H](Cc4ccccc4)C2[C@H](C)[C@@]2(C)O[C@H]2C3/C=C/C/C=C\CNC(=O)[C@@H]2CCCN2C1=O (stereo partly specified) | 0.283
O=C(c1ccccc1)N1C(=O)[C@]2(COC(c3ccc(OCCCO)cc3)=N2)Cc2ccccc21 | 0.218
CCOC(=O)C[C@H]1[C@H](OC(=O)c2ccc(C(=O)c3ccccc3)cc2)[C@@H](NC(=O)c2ccccc2)c2cc(OCCCO)ccc2N1C(=O)c1ccc2ccccc2n1 | 0.267
CC(C)C(=C=CC[C@H](O)c1ccc(OCCO)cc1)CCO | 0.0098
CN(C)C(=O)[C@]1(Cc2ccccc2N=[N+]=[N-])N=C(c2ccc(OCCCO)cc2)O[C@@H]1c1ccccc1N=[N+]=[N-] | 0.405
C=CCOC(=O)[C@H]1[C@@H]2C(=O)O[C@@H](c3ccccc3)[C@@H](c3ccccc3)N2[C@@H](c2ccc(OCCOC(=O)[C@H]3C[C@H]4C(=O)N[C@@H](CCCC[N+](C)(C)C)C(=O)N4[C@H]3c3ccc(O)cc3)cc2)[C@]12C(=O)Nc1ccc(I)cc12 | 0.0741

====

- PROCEDURE TEXT: A549 cell viability effects, profiling panel, calcein-AM fluorescence, 48 h, basal (AID 1162); also: test concentration not given here
- RUN CONDITIONS: higher = more signal
z-score values by entry

SAMPLE SMILES | z-score
COCCOC(=O)N1C(=O)[C@@]2(c3cc(C#CCCO)ccc31)[C@H](C(=O)N1CCCCCCC1)[C@H]1C(=O)O[C@H](c3ccccc3)[C@H](c3ccccc3)N1[C@@H]2c1ccc(OCCO)cc1 | 0.338
C=C[C@H](C)[C@@H](OC(=O)Nc1ccc(OC)cc1)c1ccc(O)c2ccccc12 | -1.17
COC(=O)C(CC#Cc1ccc2c(c1)[C@]1(C(=O)N2)[C@H](c2ccc(OCCO)cc2)N2[C@H](c3ccccc3)[C@H](c3ccccc3)OC(=O)[C@H]2[C@@H]1C(=O)N1CCc2cc(OC)c(OC)cc2C1)C(=O)OC | 0.442
C=C[C@H](OC)[C@@H](OC(=O)Nc1ccc(OC)cc1)c1ccc(O)c(F)c1 | -0.766
O=C1[C@@]23C=C(Br)[C@H](C[C@@H]2CCOC3)[C@@]12CO2 | 0.845
COCCOC(=O)N1C(=O)[C@@]2(c3ccccc31)[C@H](C(=O)N1CCc3cc(OC)c(OC)cc3C1)[C@H]1C(=O)O[C@H](c3ccccc3)[C@H](c3ccccc3)N1[C@@H]2c1ccc(OCCO)cc1 | 1.23

====

- TARGET: Dihydroorotate dehydrogenase (quinone), mitochondrial (Plasmodium falciparum (isolate 3D7)) (UniProt Q08210)
- Sequence (Q08210 whole entry, looked up): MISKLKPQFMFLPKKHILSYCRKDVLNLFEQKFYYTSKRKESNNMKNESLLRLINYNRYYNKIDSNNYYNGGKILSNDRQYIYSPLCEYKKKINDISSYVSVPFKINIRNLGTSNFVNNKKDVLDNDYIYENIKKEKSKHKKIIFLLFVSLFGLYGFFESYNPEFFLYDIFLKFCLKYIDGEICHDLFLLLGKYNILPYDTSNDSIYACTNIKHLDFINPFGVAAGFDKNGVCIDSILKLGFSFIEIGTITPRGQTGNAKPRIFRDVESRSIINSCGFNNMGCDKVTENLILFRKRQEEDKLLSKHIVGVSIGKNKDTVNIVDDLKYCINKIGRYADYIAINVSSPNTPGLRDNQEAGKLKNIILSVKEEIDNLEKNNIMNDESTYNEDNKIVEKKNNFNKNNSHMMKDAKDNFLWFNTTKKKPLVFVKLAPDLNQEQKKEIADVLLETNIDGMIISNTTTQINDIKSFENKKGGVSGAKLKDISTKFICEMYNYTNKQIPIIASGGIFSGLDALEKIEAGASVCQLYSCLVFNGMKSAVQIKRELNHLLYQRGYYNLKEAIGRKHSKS
- PROCEDURE TEXT: PfDHODH enzyme inhibitors, primary screen, biochemical, C-terminal His tag, absorbance 600 nm (AID 1175);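 also: recombinant parasite enzyme with a five histidine tag at its C terminus; test concentration not given here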
- RUN CONDITIONS: DCIP absorbance 600 nm, higher = more signal, called active from +8 up or from −8 down

MOLECULE | composite z-score
O=C1C2C=CC(C(O)c3cc(C(F)(F)F)cc(C(F)(F)F)c3)N(n3cnnc3)C2C(=O)N1Cc1ccccc1 (stereo not given) | 0.861
CN(C)C(=O)[C@]1(Cc2ccccc2N=[N+]=[N-])N=C(c2ccc(OCCCO)cc2)O[C@@H]1c1ccccc1N=[N+]=[N-] | -0.828
CC(C)(C)OC(=O)CC[C@]1(C(=O)N2CCOCC2)N=C(c2ccc(OCCCO)cc2)O[C@H]1c1ccccc1N=[N+]=[N-] | -0.793
[N-]=[N+]=Nc1ccccc1[C@@H]1OC(c2ccc(OCCCO)cc2)=N[C@]1(CCS(=O)(=O)c1ccccc1)C(N)=O | 0.796
CN(C)CCCCCCNC(=O)[C@H]1C[C@H]2C(=O)N3CCC[C@H]3C(=O)N2[C@H]1c1ccc(O)cc1 | -1.76
CC(C)N1C(=O)c2ccccc2[C@](C)(C(=O)NCCN2CCOCC2)[C@@H]1c1ccc(CO)cc1 | 1.11
CN(C)CCCCCCNC(=O)[C@H]1C[C@H]2C(=O)N[C@@H](CCCCN)C(=O)N2[C@H]1c1cccc(OCCO)c1 | -0.692
CCCC=C(CCC)[C@@H](NC(=O)c1cccs1)c1ccc(C(F)(F)F)cc1 | -4.81
C=C(/C(=C/C[C@H](OC(C)=O)c1ccc(CO)o1)c1cc(C(=O)OC)ccc1OC)C(C)C | -3.65
NCCCCCNC(=O)[C@@H]1C[C@@H]2C(=O)N[C@@H](Cc3ccccc3)C(=O)N2[C@@H]1c1ccc(O)cc1 | -0.0741
COc1ccc([Si](C)(C)[C@@H]2[C@@H](CCO)O[C@]3(C(=O)N(Cc4ccc(N(C=O)c5ccccc5)cc4)c4ccccc43)[C@H]2C)cc1 | -0.493
CN1C(=O)C2C=CC(C(O)C3CC=CCC3)N(N(c3ccccc3)c3ccccc3)C2C1=O (stereo not given) | -0.0647
[N-]=[N+]=NCc1ccccc1C[C@]1(C(=O)N2CCCCC2)N=C(c2ccc(OCCCO)cc2)O[C@H]1c1ccccc1N=[N+]=[N-] | 0.168
CC1CC/C=C\[C@H]2OC34C=CCN(C(C)(C)C)C(=O)[C@H]3N(C(C)CO)C(=O)[C@@H]4C2C(=O)O1 (stereo not given in full) | -3.09
C=CCC(OC(C)=O)[C@@H]1[C@@H](N(Cc2ccc(-c3ccccc3)cc2)C(=O)c2ccc(-c3ccccc3)cc2)c2cc(OCCCO)ccc2N1C(=O)Cc1ccc2ccccc2c1 (stereo not given in full) | -0.0366

====

- PROCEDURE TEXT: FRG1 promoter luciferase signal modulators, primary screen, FRG1 inhibition for FSHD, cell-based, C2C12 myotubes, firefly/Renilla luciferase, luminescence (AID 1084)
- RUN CONDITIONS: higher = more signal, called active from +8 up or from −8 down
Quick rule: z-score of at least 0.1 means yes (1), below that means no (0).

COMPOUND | GROUP
COC(=O)C(CC#Cc1ccc2c(c1)[C@]1(C(=O)N2)[C@H](C(=O)Nc2nc3ccccc3s2)[C@H]2C(=O)O[C@H](c3ccccc3)[C@H](c3ccccc3)N2[C@@H]1c1ccc(O)cc1)C(=O)OC | yes (1)
C=CC(=C)[C@H]1Oc2ccccc2S(=O)(=O)N2CCC[C@@H]12 | no (0)
CCCCCN1CC=CC23O[C@@H]4C=CCCOC(=O)C4[C@H]2C(=O)N(CCCCCO)[C@@H]3C1=O (some centres not stated) | no (0)
C=CCNC(=O)[C@H]1[C@@H]2C(=O)O[C@@H](c3ccccc3)[C@@H](c3ccccc3)N2[C@@H](c2ccccc2OCCO)[C@]12C(=O)Nc1ccc(C#CCC(C(=O)OC)C(=O)OC)cc12 | no (0)
C=CCOC(=O)[C@H]1[C@@H]2C(=O)O[C@@H](c3ccccc3)[C@@H](c3ccccc3)N2[C@@H](c2ccc(OCCOC(=O)[C@H]3C[C@H]4C(=O)N[C@@H](CCCCNC(C)=O)C(=O)N4[C@H]3c3cccc(OCCO)c3)cc2)[C@]12C(=O)Nc1ccccc12 | yes (1)
C[C@@]1([C@@H](NC(=O)c2ccc(-c3ccccc3)cc2)c2ccc(Cl)cc2)C[C@H]1C1CCCCC1 | no (0)
